Measured Ki, listed per entry.
target: 5-hydroxytryptamine receptor 1D (Homo sapiens, UniProt P28221)
Sequence (P28221 whole entry): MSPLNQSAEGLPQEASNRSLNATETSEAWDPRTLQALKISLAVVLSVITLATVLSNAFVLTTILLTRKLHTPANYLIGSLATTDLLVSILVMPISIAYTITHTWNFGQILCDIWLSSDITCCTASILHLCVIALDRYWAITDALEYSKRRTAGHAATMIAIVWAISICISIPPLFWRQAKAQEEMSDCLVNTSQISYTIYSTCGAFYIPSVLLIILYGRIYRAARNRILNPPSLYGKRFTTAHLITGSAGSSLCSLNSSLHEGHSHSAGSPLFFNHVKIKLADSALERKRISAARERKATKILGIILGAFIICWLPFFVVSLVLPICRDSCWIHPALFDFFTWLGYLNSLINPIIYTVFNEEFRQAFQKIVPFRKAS
Kindly provide the numeric value in nM only, without the unit symbol.

Exercise: Write down the reported Ki (system: 5-hydroxytryptamine receptor 1D (Homo sapiens, UniProt P28221)) of `Cc1cc(C(C)(C)C)cc(C)c1N=C1NCCN1`
Key: 0.3

Exercise: Retrieve Ki on 5-hydroxytryptamine receptor 1D (Homo sapiens, UniProt P28221); query `Clc1cc(I)cc(Cl)c1N=C1NCCN1`
Key: 50

Exercise: Give 5-hydroxytryptamine receptor 1D (Homo sapiens, UniProt P28221) Ki for the following molecule: `Cc1cc([N+](=O)[O-])cc(C)c1N=C1NCCN1`
Key: 330

Others:
Exercise: Fill in Ki for `Cc1cc(Br)cc(C)c1N=C1NCCN1` tested with 5-hydroxytryptamine receptor 1D (Homo sapiens, UniProt P28221).
Key: 54

Exercise: Using 5-hydroxytryptamine receptor 1D (Homo sapiens, UniProt P28221) as the test system, report measured Ki of `Cc1cccc(C)c1N=C1NCCN1` .
Key: 2080

Numbers sourced from ChEMBL document CHEMBL1137835.
